Listed next: entries and their corresponding pIC50.
assay system: recombinant human KHKC (Homo sapiens, UniProt P50053)
Construct: Profinity eXact fusion tag (N, cleaved yes); made in house; host or cells: E. coli BL21 (DE3), vector pPAL8; cDNA from Hep G2 cells
Sequence (P50053 1-298): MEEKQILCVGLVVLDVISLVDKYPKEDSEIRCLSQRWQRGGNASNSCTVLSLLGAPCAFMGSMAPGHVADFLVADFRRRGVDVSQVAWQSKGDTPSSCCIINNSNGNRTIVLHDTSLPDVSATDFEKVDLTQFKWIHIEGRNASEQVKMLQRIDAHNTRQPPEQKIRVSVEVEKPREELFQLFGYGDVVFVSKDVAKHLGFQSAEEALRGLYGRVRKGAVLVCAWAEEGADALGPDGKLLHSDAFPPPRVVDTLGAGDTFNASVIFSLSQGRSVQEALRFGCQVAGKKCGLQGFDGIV
protocol text: High throughput cell-free recombinant KHKC enzymatic assay (3-step reaction, decrease in NADH at A340nm)
Format: biochemical
measurement context: phytochemicals, dose response 0.05 to 100 μM; read-out: KHKC IC50
Please express pIC50 as -log10 of the molar concentration.

Recorded pIC50, per entry:
What value of pIC50 has been reported for the following compound? COc1c(O)cc2oc(-c3ccccc3)cc(=O)c2c1O
5.09

What about O=c1cc(-c2ccc(O)cc2)oc2cc(O[C@@H]3O[C@H](CO)[C@@H](O)[C@H](O)[C@H]3O[C@@H]3OC[C@](O)(CO)[C@H]3O)cc(O)c12 ?
4.67

What about O=C(O)[C@H]1O[C@@H](Oc2cc(O)c3c(=O)cc(-c4ccc(O)cc4)oc3c2)[C@H](O)[C@@H](O)[C@@H]1O [Apigenin 7-glucuronide] ?
4.79

What about CC(C)=CCc1c(-c2ccc(O)cc2O)oc2c(CC=C(C)C)c(O)cc(O)c2c1=O ?
4.51

What about COc1c(O)cc2c(=O)c3c(O)cc(O)c(CC=C(C)C)c3oc2c1CC=C(C)C ?
6.00

Next:
What value of pIC50 has been reported for the following compound? COc1ccc2ccc(=O)oc2c1CC=C(C)C
6.15

What about CC(C)=CCc1c(O)ccc(C(=O)/C=C/c2ccc(O)cc2)c1O ?
5.24

What about COc1cc(OC)c2ccc(=O)oc2c1CC=C(C)C ?
4.99

====

assay system: recombinant human KHKC (Homo sapiens)
Construct: Profinity eXact fusion tag (N, cleaved yes); made in house; host or cells: E. coli BL21 (DE3), vector pPAL8; cDNA from Hep G2 cells
protocol text: High throughput cell-free recombinant KHKC enzymatic assay (3-step reaction, decrease in NADH at A340nm)
Assay type: biochemical
measurement context: phytochemical library screen, 50 μM, 1 mM fructose; read-out: KHKC Inhibition (%)
Listed next: entries and their corresponding inhibition at 50 µM.
Field format: number, assumed %, no unit text.

Recorded inhibition at 50 µM, per entry:
What value of inhibition at 50 µM has been reported for the following molecule? O=c1cc(-c2ccc(O)cc2)oc2cc(O[C@@H]3O[C@H](CO)[C@@H](O)[C@H](O)[C@H]3O[C@@H]3OC[C@](O)(CO)[C@H]3O)cc(O)c12
47

What about CC(C)=CCc1c(O)ccc(C(=O)/C=C/c2ccc(O)cc2)c1O ?
44.2

What about COc1c(O)cc2c(=O)c3c(O)cc(O)c(CC=C(C)C)c3oc2c1CC=C(C)C ?
61.7

What about COc1cc(OC)c2ccc(=O)oc2c1CC=C(C)C ?
70.4

What about COc1c(O)cc2oc(-c3ccccc3)cc(=O)c2c1O ?
42.1

Moving on to the next molecule.
What value of inhibition at 50 µM has been reported for the following molecule? COc1ccc2ccc(=O)oc2c1CC=C(C)C
93.4
